# tgt: human MyD88 (human) (UniProt Q99836)
# test method notes: P8 phage display panning on plate-immobilised MyD88, after round 4, NGS
Class assignment keyed on NGS count, ranges LOW: < 2000 count; MEDIUM: ≥ 2000 count and < 7000 count; HIGH: ≥ 7000 count

binder	discrete label
YASSSWALDELLRILY	MEDIUM
MFGGDTFHDFLDLISM	LOW
DYASSTWWLRELLQIA	MEDIUM
SPQEQDGFWVRLIEAL	LOW
WDFASNMEQFWDRLYY	HIGH
DSLFWDRLLYSLHVTE	HIGH
DPQDLDWFYERLVSLL	HIGH

For the record WALDELLKILYANETM , report the class its NGS count corresponds to.
HIGH
